Reference for the values: PubChem BioAssay (EPA / NIEHS)

read-out: xenobiotic metabolism (CYP1A2), CYP1A2 (gene 1544); assay: CLD_CYP1A2_24hr: CellzDirect (CLD) Gene Expression Assay for xenobiotic metabolism (CYP1A2) at 24 hours (AID 2283683)
Inconclusive results are not listed. The source made the active and inactive calls. The calls were made as follows: active = hit-call score of the fitted dose curve at least 0.9, where 1 is the maximum; inconclusive = response in the unintended direction; inactive = score below 0.9.
// one of active, inactive, no free text

Please review the following examples before continuing.
| compound | class.label |
| --- | --- |
| CNC(=O)ON=C(SC)C(=O)N(C)C | inactive |
| Cc1cc(C2CC2)nc(Nc2ccccc2)n1 | active |
| O=[N+]([O-])c1cc(C(F)(F)F)c(Cl)c([N+](=O)[O-])c1Nc1ncc(C(F)(F)F)cc1Cl | active |
| CCCCN(CC)c1c([N+](=O)[O-])cc(C(F)(F)F)cc1[N+](=O)[O-] | active |

Recorded test call requested for CSc1nnc(C(C)(C)C)c(=O)n1N
active

Recorded test call requested for CC(C1CC1)C(O)(Cn1cncn1)c1ccc(Cl)cc1 (stereo unspecified)
active

* * *

read-out: CD40, CD40 (gene 958); experiment: BSK_LPS_CD40: BioMAP Diversity Plus: LPS Assay for CD40 Biomarker Activity (AID 2283076); settings: primary human HUVEC with PBMC; actives raise or lower the signal
The source made the active and inactive calls. The calls were made as follows: active = hit-call score of the fitted dose curve at least 0.9, where 1 is the maximum; inactive = score below 0.9.
// one of YES (active), NO (inactive), no free text

Please review the following examples before continuing.
| molecule | class.label |
| --- | --- |
| COc1cc(OC)nc(Sc2cccc(Cl)c2C(=O)O)n1 | NO |
| C#CC(C)(C)NC(=O)c1cc(Cl)cc(Cl)c1 | NO |
| C#CCC1=C(C)C(OC(=O)C2C(C=C(C)C)C2(C)C)CC1=O (stereo unspecified) | YES |
| Nc1c(Cl)cc([N+](=O)[O-])cc1Cl | NO |
| CCCCOC(=O)[C@@H](C)Oc1ccc(Oc2ccc(C#N)cc2F)cc1 | NO |

Proceed to the following item.
Recorded test call requested for C=C(C)[C@H]1Cc2c(ccc3c2O[C@@H]2COc4cc(OC)c(OC)cc4[C@@H]2C3=O)O1
YES

* * *

target: human Protein Tyrosine Phosphatase Non-receptor Type 2 (PTPN2), PTPN2 (gene 5771) (UniProt P17706); assay: NVS_ENZ_hPTPN2: NovaScreen (NVS) Enzymatic Assay for human Protein Tyrosine Phosphatase Non-receptor Type 2 (PTPN2) (AID 2283207)
Sequence (P17706 whole entry, looked up): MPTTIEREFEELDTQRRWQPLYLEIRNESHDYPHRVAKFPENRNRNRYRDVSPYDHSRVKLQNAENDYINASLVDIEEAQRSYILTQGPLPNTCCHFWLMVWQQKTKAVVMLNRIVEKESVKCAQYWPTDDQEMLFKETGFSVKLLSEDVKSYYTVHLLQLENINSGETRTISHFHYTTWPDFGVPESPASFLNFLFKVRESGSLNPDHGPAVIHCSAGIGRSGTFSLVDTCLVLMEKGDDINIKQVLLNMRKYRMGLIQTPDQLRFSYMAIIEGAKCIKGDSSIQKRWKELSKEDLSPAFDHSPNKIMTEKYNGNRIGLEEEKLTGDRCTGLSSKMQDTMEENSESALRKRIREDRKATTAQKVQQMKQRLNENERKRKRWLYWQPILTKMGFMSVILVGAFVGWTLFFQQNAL
Records with an inconclusive call do not appear. Calls of active or inactive are those of the source. The calls were made as follows: active = hit-call score of the fitted dose curve at least 0.9, where 1 is the maximum; inconclusive = response in the unintended direction; inactive = score below 0.9.

| substance.smiles | AC50 |
| --- | --- |
| Nc1c(Cl)cc([N+](=O)[O-])cc1Cl | inactive |
| CCOP(=S)(OCC)Oc1cc(C)nc(C(C)C)n1 | inactive |
| CCc1cccc(CC)c1N(COC)C(=O)CCl | inactive |
| CN(C)[C@@H]1C(=O)C(C(N)=O)=C(O)[C@@]2(O)C(=O)C3=C(O)c4c(O)cccc4[C@@](C)(O)[C@H]3[C@H](O)[C@@H]12 | 20.1 µM (active) |

* * *

read-out: Monocyte Chemoattractant Protein-1 (MCP1), CCL2 (gene 6347); assay: BSK_4H_MCP1: BioMAP Diversity Plus: 4H Assay for Monocyte Chemoattractant Protein-1 (MCP1) Biomarker Activity (AID 2283018); conditions: primary human endothelial cells (HUVEC); actives raise or lower the signal
Calls of active or inactive are those of the source. Rule for the calls: active = hit-call score of the fitted dose curve at least 0.9, where 1 is the maximum; inactive = score below 0.9.
measurement.type: AC50

Reference set (8 entries):
| molecule | AC50 |
| --- | --- |
| O=C(O)c1cc(Oc2ccc(C(F)(F)F)cc2Cl)ccc1[N+](=O)[O-] | inactive |
| S=C1NCCN1 | inactive |
| CC1=NNC(=O)N(/N=C/c2cccnc2)C1 | inactive |
| CNC(=O)Oc1cccc2c1OC(C)(C)O2 | inactive |
| Cc1ccn2nc(S(=O)(=O)Nc3c(F)cccc3F)nc2n1 | inactive |
| CCCOCC(=Nc1ccc(Cl)cc1C(F)(F)F)n1ccnc1 | 24.9 µM (active) |
| CCc1cccc(C)c1N(C(=O)CCl)C(C)COC (stereo not drawn) | inactive |
| CCCSP(=O)(OCC)SCCC | inactive |

Dear colleague, could you send me AC50 for each of the items below? Thanks.
1. FC(F)C(F)(F)OCC(Cn1cncn1)c1ccc(Cl)cc1Cl (stereo not drawn)
2. COP(=O)(OC)C(O)C(Cl)(Cl)Cl (stereo not drawn)

1: 23.2 µM (active); 2: inactive
